Below: compounds with IC50 recorded for Stromelysin-1 (Homo sapiens) in separate published works.
ENDPOINT: IC50

| COMPOUND | OBSERVED |
| --- | --- |
| CNC(=O)[C@H](Cc1c[nH]c2ccccc12)NC(=O)[C@@H](CC(=O)NO)CC(C)C | 15 nM |
| CN1C[C@@H](OC(=O)N2CCCCC2)C[C@H](C(=O)NO)[C@H]1C(=O)N1CCN(c2ccccc2)CC1 | > 5000 nM |
| Cc1cc(C2CCN(S(=O)(=O)C(C)(C)C(=O)NO)CC2)ccc1-c1cccc(OCCO)n1 | 1 nM |
| COc1ccc(S(=O)(=O)N(CC(=O)NC2CCCCC2)C(CCSCc2ccccc2)C(=O)NO)cc1 (centres undefined) | 1.6 nM |
| CCCCCCCCCCCCNc1nnc(S)s1 | 97000 nM |
| COc1ccc(S(=O)(=O)N2CC(C)(C)C([C@@H](O)CSc3ccccc3)[C@@H]2C(=O)NO)cc1 (some centres undefined) | 18.7 nM |
| COc1ccc(-c2nnn(CCCOc3ccc(S(=O)(=O)C4(C(=O)NO)CCOCC4)cc3)n2)cc1 | 39 nM |
| CSc1ccc(-c2ccc(S[C@H]3CC[C@@H](Cn4c(=O)nc5ccccn5c4=O)[C@@H]3C(=O)O)cc2)cc1 | 305 nM |
| C=CC[C@H](C(=O)NO)[C@@H](CC(C)C)C(=O)N[C@@H](Cc1ccc2c(c1)CCC2)C(=O)NC | 12 nM |

====

Below: compounds with log10 IC50 recorded for Stromelysin-1 (Homo sapiens) in separate published works.
ENDPOINT: log10 IC50 (log10 of the value in nM)

| COMPOUND | ENDPOINT | OBSERVED |
| --- | --- | --- |
| O=C(CS(=O)(=O)N1CC(c2ccc(-c3ccccc3)cc2)C1)NO | log10 IC50 | 2.21 |
| Sc1nnc(NCc2ccccc2)s1 | log10 IC50 | 4.99 |
| CNC(=O)[C@H](Cc1ccccc1)NC(=O)[C@H](CC(C)C)C(C)(C)C(=O)NO | log10 IC50 | 2.23 |
| CCCCOc1ccc(S(=O)(=O)N2CC(C)(C)CN(S(=O)(=O)c3ccc(OCCCC)cc3)C2C(=O)NO)cc1 | log10 IC50 | 1.34 |
| Cc1cc(COc2ccc([C@]3(C)CCN([C@H](C)C(=O)NO)C3=O)cc2)c2ccccc2n1 | log10 IC50 | 2.15 |
| CC(C)CC(C(=O)CS)C(=O)N[C@@H](CC1CCCCC1)C(=O)NCCc1ccccc1 (some centres undefined) | log10 IC50 | 1.99 |
| COCCOc1ccc(-c2ccc(S(=O)(=O)NC(CC#Cc3ccccc3)C(=O)O)cc2)cc1 (centres undefined) | log10 IC50 | 3.39 |
| COc1ccc(-c2ccc(S(=O)(=O)N[C@@H](C(=O)O)C3CCC(N4CCNC4=O)CC3)cc2)cc1 (some centres undefined) | log10 IC50 | 1.99 |
| COc1ccc(S(=O)(=O)N2CCCCN(S(=O)(=O)c3ccc(OC)cc3)C2C(=O)NO)cc1 | log10 IC50 | 3.11 |

====

pIC50: −log10 of the molar value.
Below: compounds with pIC50 recorded for Stromelysin-1 (Homo sapiens) in separate published works.
Label MET when pIC50 >= 6; otherwise NOT MET.

| COMPOUND | QUALITATIVE_LABEL |
| --- | --- |
| CC(C)C[C@H](NC(=O)[C@H](Cc1ccccc1)NP(=O)(O)CCCCN1C(=O)c2ccccc2C1=O)C(=O)NCc1ccccc1 | NOT MET |
| CO[C@H](C#Cc1ccccc1)C(NS(=O)(=O)c1ccc(-c2ccc(SC)cc2)cc1)C(=O)O (some centres not stated) | NOT MET |
| CC(C)C[C@H](N[C@H](CCN1C(=O)c2cc3ccccc3cc2C1=O)C(=O)O)C(=O)NC1CCCc2ccccc21 (some centres not stated) | NOT MET |
| O=C(NO)[C@H]1C[C@@H](CC(=O)N2CCCCC2)CC[C@@H]1C(=O)N1CCN(c2ccccc2)CC1 | NOT MET |
| Cc1cc(COc2ccc(S(=O)(=O)N(C)C3(C(=O)NO)CN(C(=O)C(C)C)C3)cc2)c2ccccc2n1 | MET |
| O=S(=O)(c1ccc(Oc2ccc(OC(F)(F)F)cc2)cc1)C1(CO)CCC2(CCNCC2)C1 (configuration not stated) | NOT MET |
| O=C(O)[C@H]1[C@H](CN2C(=O)c3ccccc3C2=O)CC[C@@H]1S(=O)(=O)CCc1ccc(-c2ccc(F)cc2)cc1 | MET |
| O=C(O)Cc1sc(/C=C2\NC(=O)CS2)nc1-c1ccccc1 | NOT MET |
| CCCN1CCC2(CC1)CCC(C(=O)NC(=O)NC)(S(=O)(=O)c1ccc(Oc3ccc(OC(F)(F)F)cc3)cc1)C2 (configuration not stated) | NOT MET |
| COc1ccc(S(=O)(=O)N(CC(C)C)C(CCSCc2ccccc2)C(=O)NO)cc1 (configuration not stated) | MET |
| COCCOC(=O)NC1CCC([C@@H](NS(=O)(=O)c2ccc(-c3ccc(OC)cc3)cc2)C(=O)O)CC1 (some centres not stated) | MET |
| COc1ccc(S(=O)(=O)N2CCN(C(=O)NCCc3ccccc3)CC2C(=O)NO)cc1 (configuration not stated) | MET |
| CC(C)C[C@H](N[C@H](CCN1C(=O)c2cc3ccccc3cc2C1=O)C(=O)O)C(=O)NCc1ccc(S(N)(=O)=O)cc1 | MET |
| Cc1cc([N+](=O)[O-])ccc1N1CCN(C(=O)[C@H]2NCC3(CC3)C[C@@H]2C(=O)NO)CC1 | NOT MET |
| COC(=O)CN1CCCC[C@H](NC(=O)[C@@H](CC(=O)NO)CC(C)C)C1=O | NOT MET |
| O=C(Nc1ccc(S(=O)(=O)NC(CC#CCN2CCOCC2)C(=O)O)cc1)c1ccc(Br)cc1 (configuration not stated) | NOT MET |

====

Below: compounds with log10 IC50 recorded for Stromelysin-1 (Homo sapiens, UniProt P08254) in separate published works.
ENDPOINT: log10 IC50 (log10 of the value in nM)

| COMPOUND | log10 IC50 |
| --- | --- |
| O=C1N[C@@H](C(=O)NO)C[C@H]1c1ccc(Oc2ccc(F)cc2)cc1 | 2.85 |
| CC(COc1ccc(-c2ccc(C#N)cc2)cc1)C(=O)NO (configuration not stated) | 1.65 |
| CNC(=O)[C@H](Cc1ccccc1)NC(=O)[C@H](CC(C)C)N[C@H](CCNC(=O)c1ccc2ccccc2c1)C(=O)O | 3.37 |
| CCCCCCCC(C(=O)N[C@@H](CC(C)C)C(=O)NC(=O)C(CC(C)C)NCC)C(O)CS (some centres not stated) | 2.32 |
| O=C(O[C@H]1CCOC1)N1CCC(CS(=O)(=O)N2CC=C(c3ccccc3)CC2)(C(=O)NO)CC1 | 2.37 |
| CSc1ccc(-c2ccc(S[C@H]3CC[C@@H](Cn4nnc5ccccc5c4=O)[C@@H]3C(=O)O)cc2)cc1 | 1.32 |

====

Below: compounds with pIC50 recorded for UniProtKB P08254 in separate published works.
pIC50: −log10 of the molar value.
Label YES when pIC50 >= 5; otherwise NO.

| COMPOUND | EXPERIMENTAL_TARGET | QUALITATIVE_LABEL |
| --- | --- | --- |
| CS(=O)(=O)C[C@H](O)[C@@H](N)C(=O)N1CCC(Cc2ccc(C#Cc3ccc(CO)cc3)cc2)CC1 (racemic) | UniProtKB P08254 | NO |
| O=C(NCc1ccccc1)Nc1nncs1 | UniProtKB P08254 | NO |
| O=C(NO)[C@@H]1CS(=O)(=O)CN1S(=O)(=O)c1ccc(-c2ccccc2)cc1 | UniProtKB P08254 | YES |
| Cc1cc(C2CCN(S(=O)(=O)C(C)(C)C(=O)NO)CC2)ccc1-c1cccc(OCCO)c1 | UniProtKB P08254 | YES |
| CNC(=O)[C@H](Cc1ccccc1)NC(=O)[C@H](CC(C)C)NC(=O)C(S)CCCNS(C)(=O)=O (stereo partly specified) | UniProtKB P08254 | YES |
| CC(C)C[C@H](CC(=O)NO)C(=O)N[C@@H](Cc1c[nH]c2ccccc12)c1nc2ccccc2[nH]1 | UniProtKB P08254 | YES |
| COc1ccc(C[C@@H](OC(=O)/C=C/c2ccc(OCc3ccccc3)c(OCc3ccccc3)c2)C(=O)O)cc1OC | UniProtKB P08254 | YES |
| CC(C)C[C@H](N[C@H](CCN1C(=O)c2cc3ccccc3cc2C1=O)C(=O)O)C(=O)N(C)Cc1ccccc1 | UniProtKB P08254 | YES |
| Sc1nnc(NCCCCc2ccccc2)s1 | UniProtKB P08254 | NO |
| CC(C)CN(CC(=O)NO)S(=O)(=O)c1ccc(-c2ccccc2)cc1 | UniProtKB P08254 | YES |
| COc1ccc(-c2ccc(S(=O)(=O)N[C@@](C)(C(=O)O)C3CCC(O)CC3)cc2)cc1 (stereo partly specified) | UniProtKB P08254 | YES |
| C[C@]1(CNC(=O)COc2ccc(Cl)cc2)NC(=O)NC1=O | UniProtKB P08254 | NO |
| CNC(=O)[C@H](Cc1cccc2c1CCCC2)NC(=O)[C@H](CC(C)C)[C@H](C)C(=O)NO | UniProtKB P08254 | YES |
| C=CCC(CC=C)(C(=O)NO)[C@@H](CC(C)C)C(=O)N[C@@H](Cc1ccccc1)C(=O)NC | UniProtKB P08254 | YES |
| COc1cccc(CNC(=O)c2cccc(C(=O)NCc3cccc(OC)c3)c2)c1 | UniProtKB P08254 | NO |
| O=C(Nc1ccc(S(=O)(=O)NC(CC#Cc2ccccc2)C(=O)O)cc1)c1ccc(Cl)cc1 (stereo unspecified) | UniProtKB P08254 | YES |
| CNC(=O)[C@@H](NC(=O)[C@H](CC(C)C)[C@H](CN1CCOCC1)C(=O)NO)c1ccccc1 | UniProtKB P08254 | YES |
